Field: MIC. Provide a value for each of the molecules that follow.
System: Streptococcus
assay: Antibacterial activity against Streptococcus gamma 32206 by CLSI agar microdilution method
Assay type: functional
Record the value in µg/mL, omitting the unit from your answer.

In: Consider the molecule CN[C@H](CC(C)C)C(=O)N[C@H]1C(=O)N[C@@H](CC(N)=O)C(=O)N[C@H]2C(=O)N[C@H]3C(=O)N[C@H](C(=O)N[C@@H](C(=O)O)c4cc(O)cc(O)c4-c4cc3ccc4O)[C@H](O[C@H]3C[C@](C)(N)[C@H](O)[C@H](C)O3)c3ccc(c(Cl)c3)Oc3cc2cc(c3O[C@@H]2O[C@H](CO)[C@@H](O)[C@H](O)[C@H]2O[C@H]2C[C@](C)(NCc3ccc(Br)cc3)[C@H](O)[C@H](C)O2)Oc2ccc(cc2Cl)[C@H]1O and give its measured MIC.
Out: 6.25

In: Another molecule: CN[C@H](CC(C)C)C(=O)N[C@H]1C(=O)N[C@@H](CC(N)=O)C(=O)N[C@H]2C(=O)N[C@H]3C(=O)N[C@H](C(=O)N[C@@H](C(=O)O)c4cc(O)cc(O)c4-c4cc3ccc4O)[C@H](O[C@H]3C[C@](C)(N)[C@H](O)[C@H](C)O3)c3ccc(c(Cl)c3)Oc3cc2cc(c3O[C@@H]2O[C@H](CO)[C@@H](O)[C@H](O)[C@H]2O[C@H]2C[C@](C)(NCc3ccc4ccccc4c3)[C@H](O)[C@H](C)O2)Oc2ccc(cc2Cl)[C@H]1O
Out: 0.78

In: Another molecule: CN[C@H](CC(C)C)C(=O)N[C@H]1C(=O)N[C@@H](CC(N)=O)C(=O)N[C@H]2C(=O)N[C@H]3C(=O)N[C@H](C(=O)N[C@H](C(=O)O)c4cc(O)cc(O)c4-c4cc3ccc4O)[C@H](O)c3ccc(c(Cl)c3)Oc3cc2cc(c3O[C@@H]2O[C@H](CO)[C@@H](O)[C@H](O)[C@H]2O[C@H]2C[C@](C)(N)[C@H](O)[C@H](C)O2)Oc2ccc(cc2Cl)[C@H]1O.Cl [VANCOMYCIN HYDROCHLORIDE]
Out: 6.25

---

Test system: Streptococcus pneumoniae
assay: Antibacterial activity against Streptococcus pneumoniae 31002 by CLSI agar microdilution method
Assay type: functional
quantity-kind: MIC (µg/mL)
Record the value in µg/mL, omitting the unit from your answer.

In: Consider the compound CN[C@H](CC(C)C)C(=O)N[C@H]1C(=O)N[C@@H](CC(N)=O)C(=O)N[C@H]2C(=O)N[C@H]3C(=O)N[C@H](C(=O)N[C@@H](C(=O)O)c4cc(O)cc(O)c4-c4cc3ccc4O)[C@H](O[C@H]3C[C@](C)(N)[C@H](O)[C@H](C)O3)c3ccc(c(Cl)c3)Oc3cc2cc(c3O[C@@H]2O[C@H](CO)[C@@H](O)[C@H](O)[C@H]2O[C@H]2C[C@](C)(NCc3ccc4ccccc4c3)[C@H](O)[C@H](C)O2)Oc2ccc(cc2Cl)[C@H]1O and give its measured MIC.
Out: 1.56

In: Another compound: CN[C@H](CC(C)C)C(=O)N[C@H]1C(=O)N[C@@H](CC(N)=O)C(=O)N[C@H]2C(=O)N[C@H]3C(=O)N[C@H](C(=O)N[C@@H](C(=O)O)c4cc(O)cc(O)c4-c4cc3ccc4O)[C@H](O[C@H]3C[C@](C)(N)[C@H](O)[C@H](C)O3)c3ccc(c(Cl)c3)Oc3cc2cc(c3O[C@@H]2O[C@H](CO)[C@@H](O)[C@H](O)[C@H]2O[C@H]2C[C@](C)(NC/C=C/c3ccccc3)[C@H](O)[C@H](C)O2)Oc2ccc(cc2Cl)[C@H]1O
Out: 1.56
